- assayRemarks: Antioxidant activity assay (DPPH)
Rule: measured IC50 below 100 µM gets label 1; anything equal to or greater than 100 µM gets label 0.

Worked set:
### Prompt Is IC50 strictly under 100 µM for the entry O=C1O[C@H]([C@@H](O)COCc2cn(Cc3ccc(O)cc3)nn2)C(O)=C1O [Compound 2a] ?
### Response label 0

### Prompt Moving on to the next molecule: O=C1O[C@H]([C@@H](O)CO)C(OCc2cn(CC3Cc4c([nH]c5ccccc45)CN3)nn2)=C1O (stereo partly shown) [Compound 5c]
### Response label 1

### Prompt Moving on to the next molecule: COc1cc(Cn2cc(COC[C@H](O)[C@H]3OC(=O)C(O)=C3O)nn2)ccc1O [Compound 2b]
### Response label 0

### Prompt Moving on to the next molecule: O=C1O[C@H]([C@@H](O)CO)C(OCc2cn(Cc3ccc(O)cc3)nn2)=C1O [Compound 5a]
### Response label 1

### Prompt Moving on to the next molecule: O=C1O[C@H]([C@@H](O)CO)C(O)=C1O [Ascorbic acid, reference compound]
### Response label 1

Turning now to a further record.
### Prompt Is IC50 strictly under 100 µM for the entry O=C1O[C@H]([C@@H](O)COCc2cn(CC3Cc4c([nH]c5ccccc45)CN3)nn2)C(O)=C1O (stereo partly shown) [Compound 2c] ?
### Response label 1
